molecular target: Potassium channel subfamily K member 10 (Homo sapiens) (UniProt P57789); experiment: Activation of human TREK2 at 30 uM by thallium flux mobilization assay relative to control
Sequence (P57789 whole entry): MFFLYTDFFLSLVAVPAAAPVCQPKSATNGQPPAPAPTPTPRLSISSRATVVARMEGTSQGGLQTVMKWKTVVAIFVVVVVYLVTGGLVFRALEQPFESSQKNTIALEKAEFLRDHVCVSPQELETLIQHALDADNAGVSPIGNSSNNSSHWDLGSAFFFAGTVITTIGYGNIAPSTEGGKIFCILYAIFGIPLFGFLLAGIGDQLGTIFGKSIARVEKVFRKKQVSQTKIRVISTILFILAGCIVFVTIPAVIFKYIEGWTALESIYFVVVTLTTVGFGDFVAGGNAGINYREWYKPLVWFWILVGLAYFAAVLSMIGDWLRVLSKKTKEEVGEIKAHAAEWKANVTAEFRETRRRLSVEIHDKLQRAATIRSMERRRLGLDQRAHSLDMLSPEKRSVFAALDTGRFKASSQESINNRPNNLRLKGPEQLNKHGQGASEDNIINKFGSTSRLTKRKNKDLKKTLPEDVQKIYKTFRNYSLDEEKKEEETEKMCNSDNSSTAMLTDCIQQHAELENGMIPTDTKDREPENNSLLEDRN

# SMILES STRING, UNITS, Activity
records = [
    ("O=C(Nc1sccc1C(=O)O)c1ccc(SC(F)(F)F)cc1", "%", 28),
    ("O=C(Nc1ccoc1C(=O)O)c1ccc(SC(F)(F)F)cc1", "%", 5),
    ("COc1ccc(NC(=O)c2ccc(SC(F)(F)F)cc2)c(C(=O)O)c1", "%", 31),
    ("O=C(Nc1ccccc1C(=O)O)c1ccc(SC(F)(F)F)cc1", "%", 17),
    ("O=C(Nc1ccccc1C(=O)O)c1ccc(C(F)(F)F)cc1", "%", 12),
    ("O=C(Nc1ccccc1C(=O)O)c1cccc(SC(F)(F)F)c1", "%", 17),
]

---

Item-by-item account of Activity
molecular target: Potassium channel subfamily K member 10 (Homo sapiens) (UniProt P57789); experiment: Activation of human TREK2 at 30 uM by thallium flux mobilization assay relative to control

# SMILES STRING, UNITS, Activity
records = [
    ("O=C(O)Cc1cccc(NC(=O)c2ccccc2C(F)(F)F)c1", "%", 0),
    ("O=C(O)c1cccc(NC(=O)c2cccc(C(F)(F)F)c2)c1", "%", -3),
    ("O=C(O)Cc1ccccc1NC(=O)c1ccc(C(F)(F)F)cc1", "%", 0),
    ("O=C(O)Cc1cccc(NC(=O)c2ccc(C(F)(F)F)cc2)c1", "%", -1),
    ("O=C(O)Cc1ccccc1NC(=O)c1cccc(C(F)(F)F)c1", "%", 2),
    ("Cc1sc(NC(=O)c2ccc(SC(F)(F)F)cc2)c(C(=O)O)c1C", "%", 12),
    ("O=C(Nc1ncncc1C(=O)O)c1ccc(SC(F)(F)F)cc1", "%", 0),
    ("O=C(O)c1cccc(NC(=O)c2ccccc2C(F)(F)F)c1", "%", -1),
    ("O=C(Nc1ncccc1C(=O)O)c1ccc(SC(F)(F)F)cc1", "%", 1),
    ("O=C(Nc1nccnc1C(=O)O)c1ccc(SC(F)(F)F)cc1", "%", 0),
    ("COc1ccc(C(=O)O)c(NC(=O)c2ccc(SC(F)(F)F)cc2)c1", "%", 27),
]

---

Reported fraction unbound by item:
experiment: Fraction unbound in rat plasma; assay type: ADME, cell-free

# SMILES STRING, fraction unbound
data = [
    ("O=C(Nc1cc(F)c(Br)cc1C(=O)O)c1ccc(SC(F)(F)F)cc1", 0.041),
    ("c1ccc(-c2nnn[nH]2)c(Nc2cccc3c2CCCC3)c1", 0.001),
    ("O=C(Nc1ccccc1C(=O)O)c1ccc(SC(F)(F)F)cc1", 0.04),
    ("O=C(Nc1ccc(Br)cc1C(=O)O)c1ccc(SC(F)(F)F)cc1", 0.013),
]

---

target: UniProtKB O95069; assay: Activation of human TREK1 at 30 uM by thallium flux mobilization assay relative to control; settings: filed as activator
Sequence (O95069 whole entry): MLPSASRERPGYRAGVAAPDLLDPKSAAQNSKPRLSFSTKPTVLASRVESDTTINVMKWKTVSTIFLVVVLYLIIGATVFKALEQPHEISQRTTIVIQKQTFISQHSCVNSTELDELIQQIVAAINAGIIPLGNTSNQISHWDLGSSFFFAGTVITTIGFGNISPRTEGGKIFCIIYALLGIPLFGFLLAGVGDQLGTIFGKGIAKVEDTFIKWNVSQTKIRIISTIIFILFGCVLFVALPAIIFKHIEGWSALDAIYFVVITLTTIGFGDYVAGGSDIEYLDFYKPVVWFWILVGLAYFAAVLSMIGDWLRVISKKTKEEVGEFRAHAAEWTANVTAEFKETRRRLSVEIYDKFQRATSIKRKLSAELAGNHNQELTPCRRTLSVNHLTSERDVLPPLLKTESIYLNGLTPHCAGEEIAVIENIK
Reported values of Activity for individual entries
TEST READOUT: Activity (%)

# SMILES STRING, DATA VALUE
records = [
    ("O=C(Nc1ccc(Cl)cc1C(=O)O)c1ccc(SC(F)(F)F)cc1", 69),
    ("O=C(Nc1ccc(Br)cc1C(=O)O)c1ccc(SC(F)(F)F)cc1", 114),
    ("O=C(Nc1ccccc1C(=O)O)c1ccc(SC(F)(F)F)cc1", 50),
]

All values here come from ChEMBL document CHEMBL4665650.
